molecular target: UniProtKB P48067; test: Radioligand binding assays using recombinant CHO cell membranes expressing human GlyT1; details: Ki, radioligand binding to human GlyT1c transporter-expressing CHO cell membranes
Sequence (P48067 whole entry): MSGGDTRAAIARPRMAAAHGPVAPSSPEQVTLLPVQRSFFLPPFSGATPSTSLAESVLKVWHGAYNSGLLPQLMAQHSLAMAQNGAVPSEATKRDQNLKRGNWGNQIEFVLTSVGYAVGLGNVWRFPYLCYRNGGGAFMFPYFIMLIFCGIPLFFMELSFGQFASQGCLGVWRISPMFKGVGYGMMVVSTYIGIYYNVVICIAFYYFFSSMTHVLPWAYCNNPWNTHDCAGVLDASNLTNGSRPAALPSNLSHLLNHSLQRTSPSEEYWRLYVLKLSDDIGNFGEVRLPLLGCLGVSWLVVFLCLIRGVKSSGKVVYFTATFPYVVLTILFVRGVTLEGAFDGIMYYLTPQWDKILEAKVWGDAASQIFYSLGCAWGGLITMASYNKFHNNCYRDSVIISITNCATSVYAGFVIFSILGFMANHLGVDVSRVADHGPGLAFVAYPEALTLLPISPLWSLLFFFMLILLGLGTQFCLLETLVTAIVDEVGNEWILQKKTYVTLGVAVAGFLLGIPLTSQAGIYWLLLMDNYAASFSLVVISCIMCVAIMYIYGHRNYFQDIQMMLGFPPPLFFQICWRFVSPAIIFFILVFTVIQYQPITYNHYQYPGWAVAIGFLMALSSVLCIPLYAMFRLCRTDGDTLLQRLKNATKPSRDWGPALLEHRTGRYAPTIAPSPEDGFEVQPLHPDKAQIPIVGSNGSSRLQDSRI
Measured Ki values are reported for all entries that follow.

Example cases with answers are listed next.
Cc1cccc(C(N[C@H]2CN(S(=O)(=O)c3cn(C)cn3)C[C@@H]2c2ccc(F)cc2)C(F)(F)F)c1 (stereo partly shown) = ≤ 10000 nM
CN1CCCCC1C1CN(S(=O)(=O)c2cn(C)cn2)CC1Nc1cccc(OCC(F)(F)F)c1 (stereo not shown) = ≤ 10 nM
CCCCC1CN([C@H]2CN(S(=O)(=O)c3cn(C)cn3)C[C@@H]2c2ccc(F)cc2)C(=O)O1 (stereo partly shown) = ≤ 1000 nM
Cc1ccc(C(N[C@H]2CN(S(=O)(=O)c3cn(C)cn3)C[C@@H]2c2ccc(F)cc2)C(F)(F)F)cc1 (stereo partly shown) = ≤ 1000 nM

In: Name the recorded Ki of the item Cn1cnc(S(=O)(=O)N2C[C@H](NC3CCc4ccccc43)[C@@H](C3OCCCO3)C2)c1 (stereo partly shown) in your answer.
Out: ≤ 10 nM

In: Name the recorded Ki of the item Cn1cnc(S(=O)(=O)N2CC3c4ccccc4CCC3(NCc3ccc(F)cc3)C2)c1 (stereo not shown) in your answer.
Out: ≤ 100 nM

In: Name the recorded Ki of the item Cn1cnc(S(=O)(=O)N2CC3CCCN(Cc4ccc(C(F)(F)F)cc4Cl)C3C2)c1 (stereo not shown) in your answer.
Out: ≤ 1000 nM

FYI, the data here is from patent US9650334B2.
